Provenance of the data: ChEMBL document CHEMBL1201862

# Tested on: OVCAR-3
# testDetails: NCI tumour cell line growth inhibition, 48 h
Activity calls are given as the source filed them. Cut-off read from the data, not from the text of the source: active = GI50 up to about 1.1 µM and inactive = higher.

>  <compound>
O=c1c2ccccc2nc(-c2cccc(Cl)c2)n1NCC1(O)OCC(O)C(O)C1O (stereo unspecified)

>  <GI50>
> 100 µM (inactive)

$$$$
>  <compound>
CCOC(=O)c1sc2nc(SC)nc(N3CCCCC3)c2c1N

>  <GI50>
> 100 µM (inactive)

$$$$
>  <compound>
N#CCN1C(=O)c2cc([N+](=O)[O-])cc3cc([N+](=O)[O-])cc(c23)C1=O

>  <GI50>
13.4 µM (inactive)

$$$$
>  <compound>
CCOC(=O)c1[nH]c(COC(C)=O)c(CCCOC(C)=O)c1CCCOC(C)=O

>  <GI50>
> 100 µM (inactive)

$$$$
>  <compound>
Cc1nn(C(=O)c2ccncc2)c2c1C(c1cccc([N+](=O)[O-])c1)SC(=N)N2 (stereo unspecified)

>  <GI50>
> 10 µM (inactive)

$$$$
>  <compound>
CC#CCCCC1(C)CCCNC1=S (stereo unspecified)

>  <GI50>
> 10 µM (inactive)

$$$$
>  <compound>
O=C(SCc1cccc2ccccc12)c1ccc(Cl)cc1

>  <GI50>
44.4 µM (inactive)

$$$$
>  <compound>
CC1=CC=C2C(C)(C)CC[C@@H]3OC(=O)[C@H]1[C@]23C

>  <GI50>
> 100 µM (inactive)

$$$$
>  <compound>
COc1cccc(/C(CC(O)(C(F)(F)F)C(F)(F)F)=N\N(C)C)c1

>  <GI50>
> 100 µM (inactive)

$$$$
>  <compound>
CC1(C)C2CCC1C(=O)[C@@]1(C=CC(=O)CC1)C2 (stereo partly specified)

>  <GI50>
> 100 µM (inactive)

$$$$
>  <compound>
CCC1(C(=O)OC)CCc2c(OC)ccc(OC)c2C1=O (stereo unspecified)

>  <GI50>
> 100 µM (inactive)

$$$$
